GI50 by entry:
system: HOP-92; experiment: NCI tumour cell line growth inhibition, 48 h
The source made the active and inactive calls. Rule as the data show it: active = GI50 up to about 1.1 µM and inactive = higher.
OBSERVED_PROPERTY: GI50

# COMPOUND, OBSERVED_PROPERTY, RESULT
records = [
    ("CC(C)(C)c1ccc(O)c(CN(Cc2cc(C(C)(C)C)ccc2O)c2ccccc2)c1", "GI50", "16.2 µM (inactive)"),
    ("CCC1CC(=O)N(SCC(N)C(=O)O)C1=O (stereo unspecified)", "GI50", "> 100 µM (inactive)"),
    ("Cc1c(C)c2c(c(N)c1C#N)C(=O)N(NC(=S)Nc1ccccc1)C2=O", "GI50", "> 100 µM (inactive)"),
    ("CCCCCCCCCOC(=S)NCCCCC", "GI50", "20.7 µM (inactive)"),
    ("NCOC(=O)Cc1ccc(Br)cc1", "GI50", "> 100 µM (inactive)"),
    ("COc1cc(C2C3=C(COC3=O)Oc3cc4c(cc32)OCO4)ccc1O (stereo unspecified)", "GI50", "3.59 µM (inactive)"),
    ("Cc1cc(C)n(C2OC(CO)C(O)C(O)C2O)c(=S)c1C#N (stereo unspecified)", "GI50", "> 100 µM (inactive)"),
    ("C=C(C(=C)P(=S)(c1ccccc1)c1ccccc1)P(=S)(c1ccccc1)c1ccccc1", "GI50", "2.52 µM (inactive)"),
    ("O=C(Nc1nc(C23CC4CC(CC(C4)C2)C3)cs1)c1cc2cc([N+](=O)[O-])ccc2oc1=O", "GI50", "54.8 µM (inactive)"),
    ("COc1c(C2(c3ccc(F)cc3)SCCCS2)c(=O)c1=O", "GI50", "> 100 µM (inactive)"),
    ("COc1ccc2c(O)c1-c1c(OC)ccc(c1O)SSc1ccc(OC)c(c1O)-c1c(OC)ccc(c1O)SS2", "GI50", "23 µM (inactive)"),
]

---

system: A498; assay: NCI tumour cell line growth inhibition, 48 h
Where a name gives a salt, the structure may show the parent alone. Activity calls are given as the source filed them. No stated cut-off is given here; in the data, active = GI50 up to about 1.1 µM and inactive = higher.
OBSERVED_PROPERTY: GI50

# COMPOUND, TARGET_UNDER_TEST, RESULT
measured = [
    ("C#CCCCCC#CC1CCCC1C1=CC(=O)c2ccccc21 (centres undefined)", "A498", "15 µM (inactive)"),
    ("CC(=O)Nc1ccc(C(=O)NN2C(=O)C(Cl)C2c2cc(Br)cc(Br)c2O)cc1 (centres undefined)", "A498", "> 100 µM (inactive)"),
    ("Cc1cc(C)n(C2OC(CO)C(O)C(O)C2O)c(=S)c1C#N (centres undefined)", "A498", "> 100 µM (inactive)"),
    ("CC1(C)S[C@@H]2[C@H](NC(=O)C3(N)CCCCC3)C(=O)N2[C@H]1C(=O)O [CYCLACILLIN]", "A498", "> 100 µM (inactive)"),
    ("CC(Cc1ccc(Cl)cc1Cl)NO (centres undefined)", "A498", "> 100 µM (inactive)"),
    ("CCN1CCC(O)(/C=C/c2ccc(Cl)cc2)C(C(=O)/C=C/c2ccc(Cl)cc2)C1 (centres undefined)", "A498", "17.3 µM (inactive)"),
    ("C=CCCC12CCCC(=O)C1Sc1ccc3ccccc3c12 (centres undefined)", "A498", "13.1 µM (inactive)"),
    ("Fc1ccc(Nc2nc(Cl)c3nc[nH]c3n2)cc1Cl", "A498", "> 100 µM (inactive)"),
    ("Cn1c(=O)n2c(-c3ccccc3)c(-c3ccccc3)n2c1=O", "A498", "> 100 µM (inactive)"),
    ("Cc1cc(S(=O)(=O)Nc2nnc3c(Cl)cc(C(F)(F)F)cn23)c(S)cc1Cl", "A498", "> 100 µM (inactive)"),
    ("CC1=C(C(=O)Nc2ccccc2)C2(CCCCC2)C(C#N)=C(SCC(=O)Nc2ccc(Br)cc2)N1", "A498", "4.56 µM (inactive)"),
    ("Cc1nc(C(N)=S)sc1C(=O)C/C(=N/N)C(=O)Nc1cccc(Cl)c1C", "A498", "> 100 µM (inactive)"),
    ("COc1cc(OC)cc(-c2cc(=O)c3c(OC)c(OC)c(OC)c(OC)c3o2)c1", "A498", "23 µM (inactive)"),
    ("CN(C)CCOC(=O)COc1ccc(Cl)cc1 [CENTROPHENOXINE HYDROCHLORIDE]", "A498", "98.6 µM (inactive)"),
    ("C[NH+]1[C@@H](Cc2ccccc2)C(=O)O[B-]1(F)c1ccccc1 (some centres undefined)", "A498", "> 100 µM (inactive)"),
    ("CCCCCCCC/C=C1\\CCC(CN2CCOCC2)C1=O (centres undefined)", "A498", "15.8 µM (inactive)"),
    ("CC(C)C(O)(C(=O)OCN1C(=O)C2C3C=CC(C2C1=O)C1C2C(=O)N(COC(=O)C(O)(C(C)C)C(C)O)C(=O)C2C31)C(C)O (centres undefined)", "A498", "39.7 µM (inactive)"),
    ("O=C1c2ccccc2C(=O)N1CC1S(=O)(=O)OCCOS1(=O)=O", "A498", "> 100 µM (inactive)"),
    ("O=C1N/C(=N/N=C/C(O)C(O)C(O)CO)N/C1=C\\c1ccco1 (centres undefined)", "A498", "> 100 µM (inactive)"),
    ("O=C1CC(C(O)CO)CC(=O)N1 (centres undefined)", "A498", "> 100 µM (inactive)"),
    ("O=c1n(CCCN2CCN(c3cccc(Cl)c3)CC2)nc2n1-c1ccc3ccccc3c1SC2", "A498", "> 100 µM (inactive)"),
    ("COc1ccc(C(SCCO)(c2ccc(OC)cc2)c2ccc(OC)cc2)cc1", "A498", "17.8 µM (inactive)"),
    ("CN(C)c1ccc(/C=C2\\N=C(N/N=C/c3ccccc3O)NC2=O)cc1", "A498", "25.1 µM (inactive)"),
    ("COc1ccc(OC)c(NCC#N)c1", "A498", "> 100 µM (inactive)"),
    ("COC(=O)[C@H]1C=NN[C@@H]1C(=O)N1[C@H]2CC3CC[C@@]2(CS1(=O)=O)C3(C)C", "A498", "> 100 µM (inactive)"),
    ("CCNC(=O)O/N=C1/C=C2CC[C@@H]3C(CC[C@@]4(C)C3CC[C@@H]4OC(=O)NCC)[C@@]2(C)CC1 (some centres undefined)", "A498", "> 100 µM (inactive)"),
    ("CCC1CC(=O)N(SCC(N)C(=O)O)C1=O (centres undefined)", "A498", "> 100 µM (inactive)"),
    ("CC(C)=CC[S+]([O-])c1ccccc1NC1=CC(=O)CC(C)(C)C1 (centres undefined)", "A498", "> 100 µM (inactive)"),
    ("CCOC(=O)C1(Cc2ccc3c(c2)CCC3)Cc2cc3c(cc2C1)CCC3", "A498", "37.5 µM (inactive)"),
    ("O=S(=O)(NC1OCCCC1I)c1ccccc1 (centres undefined)", "A498", "> 100 µM (inactive)"),
    ("C/C(=C1/N=C(c2ccccc2)OC1=O)c1ccccc1", "A498", "> 100 µM (inactive)"),
    ("O=C(Nc1nc(C23CC4CC(CC(C4)C2)C3)cs1)c1cc2cc([N+](=O)[O-])ccc2oc1=O", "A498", "36.3 µM (inactive)"),
    ("CSc1ccc(OCC2OC2O)cc1 (centres undefined)", "A498", "28.1 µM (inactive)"),
    ("COC1OC2COC(c3ccccc3)OC2C(O)C1OC(=S)c1ccccc1 (centres undefined)", "A498", "40.5 µM (inactive)"),
    ("CC(=O)N(CN1C(=O)CCC1C(=O)O)c1ccccc1Cl (centres undefined)", "A498", "> 100 µM (inactive)"),
    ("O=C1ON=C2C3CC4CC12CC1(C3)C(=O)ON=C41", "A498", "> 100 µM (inactive)"),
    ("CCN(CCO)CC1COc2ccccc2O1 (centres undefined)", "A498", "> 100 µM (inactive)"),
    ("Cc1[nH]c2ccccc2c1CC/C(=N\\Nc1ccccc1)c1ccccc1", "A498", "> 100 µM (inactive)"),
    ("Cc1ccc(CCCCCOc2ccc(C3=NCCO3)cc2)s1", "A498", "1.81 µM (inactive)"),
    ("Cc1ccc(SCN2CCCCC2)cc1.O=C(Cl)c1ccc([N+](=O)[O-])cc1", "A498", "2.76 µM (inactive)"),
    ("Cc1cc(S(=O)(=O)Nc2nc3ccccc3nc2-c2cccc([N+](=O)[O-])c2)c(S)cc1Cl", "A498", "14.4 µM (inactive)"),
    ("CCOP(=O)(OCC)/C(C#N)=C/c1cccn1C", "A498", "> 100 µM (inactive)"),
    ("Cc1ccc(/C=N/n2c(=O)[nH]c3ccccc3c2=O)cc1", "A498", "> 100 µM (inactive)"),
    ("CC(C)N(C(=O)C12C3C4C5(C#N)C3C1(C#N)C5C42C#N)C(C)C (centres undefined)", "A498", "> 100 µM (inactive)"),
]
